- Test system: DU-145
- experiment.summary: NCI tumour cell line growth inhibition, 48 h
Activity calls are given as the source filed them. No stated cut-off is given here; in the data, active = GI50 up to about 1.1 µM and inactive = higher. *1 amine or outer side, *2 acyl side, *3 side chain or, on linkers, in order; H or OH if unused. Where a SMILES comes first, the peptide text is derived from it. [ ]: non-standard residue; d: D form. The star is where a group is joined. ξ: configuration not given here. X43 = CCC(=O)CC(O)CC(C)CC(N[*:1])C(=O)[*:2]; ξLeu(3ξ-OH) = CC(C)C(O)C(N)C(=O)O; ξPro(4ξ-Me) = CC1CNC(C(=O)O)C1; X42 = CCC(C)/C=C/C(=O)*; Aib = CC(C)(N)C(=O)O; X44 = CC(CN(C)C)N*; βAla = NCCC(=O)O
Reply using exactly one outcome from t for active, f for inactive

# example entries with known answers
>>> label_class("C=C1c2nc3ccccc3n2C=C(c2ccc(OC)cc2)N1c1ccc(OCCN2CCOCC2)cc1")
"f"
>>> label_class("O=C(O)CSC(CC1(c2ccc(Cl)cc2)NC(=O)CS1)c1ccc(Cl)cc1 (centres undefined)")
"f"
>>> label_class("NCCCCN(CCCN)C(=O)c1ccccc1")
"f"
>>> label_class("N=C(N)SCCc1ccncc1")
"f"
>>> label_class("CCC1(CC)C(=O)OC(=O)C1(CC)CC")
"f"

### Prompt Hey, what did the test say about CCOC(=O)c1csc(NC(=O)C(C)N2CCCC2)n1 (centres undefined) ?
### Response f

### Prompt Okay, and Cc1cc(C)c(C(=O)c2nnc3ccccc3c2N)c(C)c1 ?
### Response f

### Prompt Can you handle Cc1cc(S(=O)(=O)Nc2nc3cccnc3[nH]2)c(S)cc1Cl next?
### Response f

### Prompt Same question, O=C(Cc1ccccc1)NN1C(=O)/C(=C\c2ccccc2O)S/C1=N\c1ccccc1 this time
### Response f

### Prompt What would you report for COc1cc(-c2cc(-c3ccccc3)nc(-c3c(OC)ccc4c(C)cc(=O)oc34)c2)cc(OC)c1OC ?
### Response f

### Prompt Proceed to COc1cc(C2c3cc4c(cc3OC(Nc3ccccc3)C2C)OCO4)cc(OC)c1OC (centres undefined)
### Response t

### Prompt Let us now turn to CCC(=O)CC(O)CC(C)CC(NC(=O)C1CC(C)CN1C(=O)/C=C/C(C)CC)C(=O)NC(C(=O)NC(C)(C)C(=O)NC(CC(C)C)C(=O)NC(CC(C)C)C(=O)NC(C)(C)C(=O)NC(C)(C)C(=O)NCCC(=O)NC(C)CN(C)C)C(O)C(C)C (centres undefined) (X42-[ξPro(4ξ-Me)][X43][ξLeu(3ξ-OH)][Aib]LL[Aib][Aib][βAla]-X44; configuration not given here)
### Response t

### Prompt And the next one, COc1cc(C=O)cc(/C=N/c2ccc(Br)cc2)c1O ?
### Response f

### Prompt Also check O=S1(=O)N=C(SCc2c[nH]c3ccccc23)N(c2ccccc2)c2ccncc21
### Response f

### Prompt Again, but for CC(NC1=NCCO1)c1ccco1 (centres undefined)
### Response f

### Prompt Can you check CCOC(=O)CNC(=O)C(C)NC(=O)C(NC(=O)CC(c1ncc[nH]1)c1ncc[nH]1)C(C)CC (centres undefined) next?
### Response f

### Prompt Continue with N#CC1(C#N)C2C=CC(C3CC=CC32)C1(C#N)C#N (centres undefined)
### Response f

### Prompt Also COC1CC(OC2CCC3(C)C(=CCC4C3C(OC(C)=O)C(OC(=O)CC(C)C)C3(C)C(C(C)=O)CCC43O)C2)OC(C)C1OC1CC(OC)C(OC2CC(OC)C(OC3OC(C)C(OC4OC(CO)C(O)C(O)C4O)C(OC)C3O)C(C)O2)C(C)O1 (centres undefined) ?
### Response f

### Prompt Further, for C=C(C)c1cc(C(C)(C)C)cc(C(=C)C)c1S(C)(=O)=O ?
### Response f

### Prompt Similarly, C[N+]1(C(CO)Cc2c[nH]c3ccccc23)Cc2ccccc2C1 (centres undefined) ?
### Response f
